# TARGET: SARS-CoV-2 3CL-protease (Severe acute respiratory syndrome coronavirus 2, UniProt P0DTD1)
# PROCEDURE_TEXT: SARS-CoV-2 3C-Like (3CL) Protease Fluorescence Assay (FRET)
# Format: biochemical
# CONDITION_INFO: SARS-CoV-2 3CL-protease 10 nM, test compounds 0-10 μM, duplicate, read-out: IC50
READOUT: IC50

Please review the following examples before continuing.
query: Which IC50 is listed for CC(C)C[C@@H](C(=O)N1C[C@]2(C[C@H]1C#N)C(=O)Nc1ccccc12)N(C)C(=O)[C@@H]1C[C@H]2C[C@H]2N1C ?
result: < 0.1 µM

query: Which IC50 is listed for CC(C)C[C@@H](C(=O)N1C[C@]2(C[C@H]1C#N)C(=O)Nc1ccccc12)N(C)C(=O)[C@H](C)NC(=O)C12CC(C(F)(F)F)(C1)C2 ?
result: < 0.1 µM

Others:
query: Which IC50 is listed for CC(C)C[C@@H](C(=O)N1C[C@]2(C[C@H]1C#N)C(=O)Nc1ccccc12)N(C)C(=O)[C@H](C)NC(=O)C(C)(F)F ?
result: < 0.1 µM

Value source: patent US20260138988A1
